Test: Plasma pharmacokinetics, chronic study (150 mg/Kg single vs daily for 2 weeks)
Type: in vivo, CD1 female mice
Conditions: female, CD1, mouse; plasma analyte, oral Bio-nFeR 150 mg/kg, Day 1
measured.attribute: Cmax (ng/mL)
Numbers only, in ng/mL.

Request: // Cmax lookup, key: CC1=C(/C=C/C(C)=C/C=C/C(C)=C/C(=O)Nc2ccc(O)cc2)C(C)(C)CCC1 [4-HPR, 4-hydroxy (phenyl)retinamide, reference compound]
Response: 6350

====

Assay: Tumour pharmacokinetics: fenretinide and metabolite levels in plasma and tumours of xenografted mice
Assay type: in vivo
Conditions: female, NSG, mouse, oral; lung cancer xenograft, Bio-nFeR 100 mg/kg, tumour density assumed =1; read-out: Mean 4-HPR concentration: Tumor
measured.attribute: concentration at 3 h

Request: // concentration at 3 h lookup, key: CC1=C(/C=C/C(C)=C/C=C/C(C)=C/C(=O)Nc2ccc(O)cc2)C(C)(C)CCC1 [4-HPR, 4-hydroxy (phenyl)retinamide, reference compound]
Response: 5.7 µM

====

Assay: Plasma pharmacokinetics, chronic study (150 mg/Kg single vs daily for 2 weeks)
Assay type: in vivo, CD1 female mice
Conditions: female, CD1, mouse, plasma, po, 150 mg/kg, plasma analyte, oral Bio-nFeR 150 mg/kg, Day 1
measured.attribute: AUC(0-t) (ng·h/mL)
One number for each entry, in ng·h/mL.

Request: // AUC(0-t) lookup, key: CC1=C(/C=C/C(C)=C/C=C/C(C)=C/C(=O)Nc2ccc(O)cc2)C(C)(C)CCC1 [4-HPR, 4-hydroxy (phenyl)retinamide, reference compound]
Response: 56900

====

Assay: Tumour pharmacokinetics: fenretinide and metabolite levels in plasma and tumours of xenografted mice
Type: in vivo
Settings: female, NOD-SCID, mouse, oral; colon cancer xenograft, Bio-nFeR 150 mg/kg, tumour density assumed =1; read-out: Mean 4-HPR concentration: Tumor
Experimental: The determination of fenretinide in plasma of mice and the others biological samples was determined according to a method specifically developed and validated for the quantification of fenretinide (4-HPR) based on liquid chromatography-tandem mass spectrometry (LC–MS/MS) (manuscript in preparation). The procedure of sample preparation and quantification can be summarized as follows. […] The Limit Of Quantification of the method was 1 ng/mL in plasma and urine and 50 ng/g in faeces. […]
measured.attribute: concentration at 3 h (µM)
One number for each entry, in µM.

Request: // concentration at 3 h lookup, key: CC1=C(/C=C/C(C)=C/C=C/C(C)=C/C(=O)Nc2ccc(O)cc2)C(C)(C)CCC1 [4-HPR, 4-hydroxy (phenyl)retinamide, reference compound]
Response: 4.8

====

Test: Plasma pharmacokinetics, acute study (single oral administration)
Format: in vivo, CD1 female mice
Settings: female, CD1, mouse, plasma, po, 50 mg/kg, plasma analyte, single oral Bio-nFeR 50 mg/kg, Suppl. Table 2 A; read-out: Tmax
measured.attribute: Tmax (h)
Numbers only, in h.

Request: // Tmax lookup, key: CC1=C(/C=C/C(C)=C/C=C/C(C)=C/C(=O)Nc2ccc(O)cc2)C(C)(C)CCC1 [4-HPR, 4-hydroxy (phenyl)retinamide, reference compound]
Response: 4

====

Assay: Plasma pharmacokinetics, acute study (single oral administration)
Assay type: in vivo, CD1 female mice
Conditions: female, CD1, mouse, plasma, po, 100 mg/kg, plasma analyte, single oral Bio-nFeR 100 mg/kg, Suppl. Table 2 A
Protocol: The experiments were performed in CD1 female mice, 7 weeks of age, (body weight 25 ± 2 g) obtained from Envigo RMS SrL (Udine, Italy). They were maintained under specific-pathogen-free conditions with constant temperature and humidity, according to institutional guidelines regularly checked by a certified veterinarian. […]
measured.attribute: AUC(0-t) (ng·h/mL)
Numbers only, in ng·h/mL.

Request: // AUC(0-t) lookup, key: CC1=C(/C=C/C(C)=C/C=C/C(C)=C/C(=O)Nc2ccc(O)cc2)C(C)(C)CCC1 [4-HPR, 4-hydroxy (phenyl)retinamide, reference compound]
Response: 66300

Taken from paper PMC6706930.
